ASSAY NAME: Metabolite identification, dog cryopreserved hepatocyte incubation of parent compound
Assay type: in vitro ADME
TEST PARAMETERS: parent incubated up to four hours
EXPERIMENTAL ENDPOINT: Relative Abundance of metabolite, Dog Hepatocytes

MOLECULE	MEASUREMENT
NC1CCN(c2cccc3ccc(-n4cnc5cc(O)ccc54)nc23)CC1 [Metabolite M8]	−
CC(CO)(COc1ccc2c(c1)ncn2-c1ccc2cccc(N3CCC(N)CC3)c2n1)COC1O[C@H](C(=O)O)[C@@H](O)[C@H](O)[C@H]1O (stereo in doubt) [Metabolite M5]	+ (minor metabolite)
CC(CO)(COc1ccc2c(c1)ncn2-c1ccc2cccc(N3CCC(N)CC3)c2n1)C(=O)O (stereo not shown) [Metabolite M2]	+ (minor metabolite)

Entry source: patent US20100016353A1
